Sourced from PubChem BioAssay (NCATS)

experiment: qHTS for differential inhibitors of proliferation of Plasmodium falciparum line HB3 (AID 1886);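 also: parasites grown with compound for 72 h before SYBR Green readout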; also: potency is read from the fitted curve at half-maximal effect
condition_parameters: Plasmodium falciparum HB3 proliferation inhibition; series mostly up to 28.7 µM
Records with an inconclusive call do not appear. The source made the active and inactive calls. Calls follow the shape of the dose curve; as a rule, active = well fitted curve in the direction sought with a large enough effect; inconclusive = small, poorly fitted or top-dose-only effect, or another doubt; inactive = no such curve, though single readings can be large or run the other way.
measured_property: Potency

> print(dat)
                                smiles.code  measured.property    observed.value
1  C[C@H]1O[C@@H](n2cc(F)c(=O)[nH]c2=O)[C@H](O)[C@@H]1O            Potency          inactive
2              C[C@](N)(Cc1ccc(O)cc1)C(=O)O            Potency          inactive
3  OCCN1CCN(CCCN2c3ccccc3Sc3ccc(Cl)cc32)CC1            Potency  5.01 µM (active)
